Recorded half-life, one value per entry.
# Assay Procedure: Metabolic stability assay in vitro (UGT and COMT incubation system, S9 fraction)
# Assay type: in vitro ADME, human
# Details: UGT and COMT incubation system; pooled human S9, 2 mM UDPGA and 0.2 mM SAM, 37 °C, pH 7.4; read-out: metabolic elimination t1/2
Write down the numeric answer in min and omit the unit.

Compound	Observed Result
O=C(O)Cc1cc(=O)oc2c(O)c(O)ccc12 [Compound 9]	96.5

Then this compound:
Quote half-life reported for O=c1ccc2ccc(O)c(O)c2o1 [Compound 1, 7,8-dihydroxycoumarin, reference compound] please.
20.3

---

The entries below are paired with their reported EC50.
# Assay Procedure: ABTS+ radical scavenging assay
# Assay type: biochemical
# Details: 3 min at room temperature, absorbance 734 nm, triplicate
Answer with a number only, understood to be in µM.

Compound	Observed Result
O=c1oc2c(O)c(O)ccc2cc1-c1nc2ccccc2s1	86.6
O=c1oc2c(O)c(O)ccc2c(-c2nnn[nH]2)c1-c1nc2ccccc2s1	122
O=c1cc(-c2ccccc2)c2ccc(O)c(O)c2o1 [Compound 3, 7,8-Dihydroxy-4-phenyl-2H-chromen-2-one]	198

Quick one: give measured EC50 for Cc1c(C(F)(F)F)c2ccc(O)c(O)c2oc1=O
107

For N#Cc1cc2ccc(O)c(O)c2oc1=O , write its EC50.
95.8

Using known records, supply EC50 for [N-]=[N+]=NCc1cc(=O)oc2c(O)c(O)ccc12
238

Provide one value: measured EC50 of COc1cc2ccc(=O)oc2c(O)c1O [Compound 11, Fraxetin, reference compound]
173

Identify measured EC50 corresponding to CCOC(=O)c1cc2ccc(O)c(O)c2oc1=O
139

---

# Assay Procedure: ABTS+ radical scavenging assay
# Format: biochemical
# Details: 3 min at room temperature, absorbance 734 nm, triplicate
Reported Metric: EC50 (µM)
State just the number; it will be interpreted in µM.

Consider the molecule CC(C)(C)c1cc(=O)oc2c(O)c(O)ccc12 and give its recorded EC50.
235

Return EC50 (reported value) for this molecule: Cc1cc(=O)oc2c(O)c(O)ccc12 [Compound 2, 7,8-Dihydroxy-4-methyl-2H-chromen-2-one]
224

---

# Assay Procedure: ABTS+ radical scavenging assay
# Format: biochemical
# Details: 3 min at room temperature, absorbance 734 nm, triplicate
Reported Metric: EC50 (µM)
Just the number please, in µM, no unit attached.

Examples with their reported EC50 follow.
Compound	Reported Metric	Quantity Unit	Observed Result
O=c1cc(C(F)(F)F)c2ccc(O)c(O)c2o1	EC50	µM	75.2
CC(=O)c1cc2ccc(O)c(O)c2oc1=O	EC50	µM	80.5
O=C(O)c1cc2ccc(O)c(O)c2oc1=O	EC50	µM	146
Cc1c(C)c2c(c(C)c1O)CCC(C)(C(=O)O)O2 (stereo not shown) [Trolox, reference compound]	EC50	µM	241
O=C(O)c1c(-c2nc3ccccc3s2)c(=O)oc2c(O)c(O)ccc12	EC50	µM	108

State, in one line, measured EC50 of C#CCNC(=O)c1cc2ccc(O)c(O)c2oc1=O
91.2

Note EC50 for the compound shown: O=c1ccc2ccc(O)c(O)c2o1 [Compound 1, 7,8-dihydroxycoumarin, reference compound]
159

Please give measured EC50 of the following entry: O=c1oc2c(O)c(O)ccc2cc1-c1ccccc1
108

Quickly give me recorded EC50 for CC(=O)Oc1ccc2ccc(=O)oc2c1OC(C)=O [Compound 12, 2-oxo-2H-Chromene-7,8-diyl diacetate]
4560

Hello, please tell me recorded EC50 for this one: NC(=O)c1c(-c2nc3ccccc3s2)c(=O)oc2c(O)c(O)ccc12
122

Reference for the values: paper PMC6222747
